The values you see were collected from PubChem BioAssay (NCI).

Hi there, I'd appreciate the recorded TGI for every entry that follows.
- System: OVCAR-4 ovarian
- MEASUREMENT DESCRIPTION: NCI tumour cell line growth inhibition, 48 h

**Q:** Report TGI for `Cc1nc(C(N)=S)sc1C(=O)CC(=O)C(=O)Nc1ccc(Br)cc1` please.
**A:** > 100 µM

**Q:** // returns reported TGI for input `O=C1Nc2cccc(Cl)c2/C1=C\c1cccnc1`
**A:** 31.7 µM

**Q:** Name the reported TGI value associated with the compound `COc1ccc(Sc2[nH]c(C=O)c3ccccc23)cc1`
**A:** 61.7 µM

**Q:** Requested field: TGI. Item: `O=c1[nH]c2nc3ccccc3c(=O)n2/c1=C/c1ccccc1`
**A:** > 100 µM

**Q:** Requested read-out: TGI. Entry: `CCCCCCCCCCCCCCCCc1c(C(=O)OC)nc(NC#N)[nH]c1=O`
**A:** > 25 µM

**Q:** Tell me the measured TGI of `c1ccc(CSC(SCc2ccccc2)c2cccc3ccccc23)cc1` , please.
**A:** > 10 µM

**Q:** Requested field: TGI. Item: NC(=O)c1ncn(C2C=CC(CP(=O)(O)O)C2)c1N (stereo not given)
**A:** > 100 µM

**Q:** Which TGI is listed for Cc1ccc(NC(=O)C2C3C=CC(O3)C2C(=O)O)cc1 (stereo not given) ?
**A:** > 100 µM

**Q:** What value of TGI has been recorded for this entry: Nc1nc(Cl)c(N)c(NCC2(CO)CCC(OCc3ccccc3)C2)n1 (stereo not given)
**A:** > 100 µM

**Q:** Consider the compound CC(=O)OCC12CC(CC1OC(C)=O)c1ccccc12 (stereo not given) and give its measured TGI.
**A:** > 100 µM

**Q:** Data request, read-out TGI, for `O=C(CSCC(=O)N/N=C\c1ccc(F)cc1F)N/N=C\c1ccc(F)cc1F`
**A:** > 100 µM

**Q:** Suppose we examine the compound `Cc1[nH]c2ncn3[nH]c(=S)nc3c2c1Cc1ccccc1` ; what TGI value has been reported?
**A:** > 100 µM

**Q:** Give the measured TGI of `CCOC(=O)C1=C(C(=O)OCC)SC2(S1)C(C(=O)OCC)=C(C(=O)OCC)Sc1c2ssc1=O` .
**A:** 2.68 µM

**Q:** TGI lookup needed for O=C(NC(CS)C(=O)O)c1c2ccccc2nc2ccccc12 (stereo not given) , thanks.
**A:** > 100 µM

**Q:** # input compound: COc1cc([C@@H]2c3cc4c(cc3[C@@H](NCc3ccccc3F)C3COC(=O)[C@@H]32)OCO4)cc(OC)c1O (stereo not given in full) ; wanted: its TGI
**A:** > 100 µM

**Q:** Need TGI, item `Cc1n[nH]c(=O)n1C1CC1`
**A:** > 100 µM

**Q:** Look at this compound and give its reported TGI. `CC(C)CCN(CCC(C)C)CC(=O)Nc1ccc(S(=O)(=O)c2ccc(NC(=O)CN(CCC(C)C)CCC(C)C)cc2)cc1`
**A:** 12.7 µM

**Q:** Would you kindly share the measured TGI for `COc1cc(OC)c(C(=O)/C=C/c2ccc(C#N)cc2)c(OC)c1` ?
**A:** > 50 µM

**Q:** What value of TGI has been recorded for this entry: `CCCCCN(CCCCC)CCC[C@@H](C)[C@H]1CC[C@H]2[C@@H]3[C@H](OCCCN)C[C@@H]4C[C@H](OCCCN)CC[C@]4(C)[C@H]3C[C@H](OCCCN)[C@]12C`
**A:** 32.6 µM

**Q:** Quick one: TGI for `Cc1cccc2c(=O)c3c(sc12)c(NCCCNCCO)nc1ccccc13` ?
**A:** 3.44 µM

* * *

- Tested on: TK-10 renal
- MEASUREMENT DESCRIPTION: NCI tumour cell line growth inhibition, 48 h; in the data active means GI50 below about 0.43 µM; inactive means the rest
API: response.call in active, inactive

**Q:** Recorded test outcome, item `CCCCCCOC(=O)CC1=C(C)/C(=C/c2[nH]c(-c3ccc[nH]3)cc2OC)N=C1C`
**A:** active

**Q:** Kindly provide the recorded test outcome for the following compound: `COc1ccc(C(=O)/C=C/c2cc(-c3ccc(OC)c(OC)c3)n[nH]2)cc1OC`
**A:** inactive

**Q:** Please state the recorded outcome for this compound: `COC(=O)c1c2c(c(C)[n+]([O-])c1C)C(=O)C(NCc1ccccc1)=CC2=O`
**A:** inactive

**Q:** Please indicate how the test categorized `COc1ccc(C)c2sc(N(Cc3cccnc3)C(=O)c3ccc(C#N)cc3)nc12` .
**A:** inactive

**Q:** Recorded test call requested for CCOC(=O)Cc1csc(NC(=O)C(OC(=O)c2ccc(Cl)cc2)c2ccccc2)n1 (stereo not given)
**A:** inactive

**Q:** // outcome(item) with item = `O=C1OC2(c3ccc(O)cc3Oc3cc(O)ccc32)c2cccc3cccc1c23`
**A:** inactive

**Q:** Would you mind telling me which call this test gave `COc1ccc(-c2cnc(-c3ccc(OC)cc3)n2-c2cc(OC)c(OC)c(OC)c2)cc1` ?
**A:** inactive

**Q:** State the result this test recorded for `COc1ccc(OC)c(N2CC(O)=C(c3nc4ccccc4s3)C2=N)c1` .
**A:** inactive

**Q:** Look up the recorded call for `CC(C)CCN(CCC(C)C)CC(=O)Nc1ccc(S(=O)(=O)c2ccc(NC(=O)CN(CCC(C)C)CCC(C)C)cc2)cc1` in this test.
**A:** inactive

**Q:** Give the logged outcome of this assay for the following compound: `Cc1ccc(-c2cc(C(=O)Nc3ccc(S(=O)(=O)N4CCCCC4)cc3)[nH]n2)c(O)c1`
**A:** inactive

**Q:** Would you mind telling me which call this test gave `COc1cc2c3c(n(CCCN=[N+]=[N-])c(=O)c2cc1OC)-c1ccccc1C3=O` ?
**A:** inactive

**Q:** Outcome? `Oc1nc(N2CCOCC2)sc1/C=C1\C=Nc2ccccc21`
**A:** inactive

**Q:** Lab log entry: `O=C(Nc1ccc(Cl)c(C(F)(F)F)c1)Nc1ccc(-c2cccnc2)cc1N1CCC(CO)CC1` — outcome as called in the assay?
**A:** inactive

**Q:** How did this test come out for `Cc1cc(-c2nc3sc(C)cn3c2/C=N/N=C(N)N)c(C)s1` ?
**A:** inactive

**Q:** Which outcome did this test record for the compound `CCCCN(CCCC)P(=O)(Oc1ccccc1)Oc1ccccc1` ?
**A:** inactive

**Q:** Kindly provide the recorded test outcome for the following compound: OCC1OC(N2C=C(c3nc4ccccc4s3)C3C=CC=CC32)C(O)C(O)C1O (stereo not given)
**A:** inactive

**Q:** Please indicate how the test categorized `CCN1/C(=C/C(C)=C/c2sc3ccc4ccccc4c3[n+]2CC)Sc2ccc3ccccc3c21` .
**A:** active

**Q:** Recorded test call requested for `c1cc(OCCN2CCCC2)ccc1CNc1ccc2nc(CCC3CCCCC3)[nH]c2c1`
**A:** inactive

**Q:** Record request — test call for `O=C1CN=C(c2ccc[nH]2)c2cc(Cl)ccc2N1`
**A:** inactive

**Q:** Tell me the assay call for `COc1ccc(Sc2[nH]c(C=O)c3ccccc23)cc1` please.
**A:** inactive

* * *

- System: SNB-75 CNS
- MEASUREMENT DESCRIPTION: NCI tumour cell line growth inhibition, 48 h
Assign GI50 to each entry below.

**Q:** I would be grateful if you could share the reported GI50 for `CCc1cc2c(c(OCC(F)(F)F)c(C(=O)NC3CCN(C(=O)CO)CC3)n2C)c(=O)n1CC(=O)c1ccccc1` .
**A:** > 33.9 µM

**Q:** Recorded GI50 for `CC(C)CCN(CCC(C)C)CC(=O)Nc1ccc(S(=O)(=O)c2ccc(NC(=O)CN(CCC(C)C)CCC(C)C)cc2)cc1` , please?
**A:** 13.3 µM

**Q:** Given the molecule `O=C1OC2(c3ccc(O)cc3Oc3cc(O)ccc32)c2cccc3cccc1c23` , what is its reported GI50?
**A:** 12.3 µM

**Q:** Which GI50 value belongs to `CCOc1ccccc1/C=N\N=C(N/N=C/c1ccccc1OCC)N/N=C/c1ccccc1OCC` ?
**A:** 2.2 µM

**Q:** # get_value(readout='GI50', item= `O=S(O)O.O=S(O)O.[Co].[NH2-].[NH2-].[NH2-].[NH2-]` )
**A:** > 100 µM

**Q:** What value of measured GI50 is listed for `COc1ccc(C(=O)/C=C/c2cc(-c3ccc(OC)c(OC)c3)n[nH]2)cc1OC` ?
**A:** 1.16 µM

**Q:** Given `OCc1ccc(-c2nc(-c3ccc4c(c3)OCO4)c(-c3ccccn3)[nH]2)cc1` , state its recorded GI50.
**A:** > 7.04 µM

**Q:** Please look up its GI50: `Cc1nnn(C)c1-c1cnc2c3ccc(C(C)(C)O)cc3n([C@H](c3ccccc3)C3CCOCC3)c2c1`
**A:** < 0.01 µM

**Q:** Quick one: GI50 for `N#Cc1c(N)nc2c(c1-c1ccc(Cl)cc1)COc1ccc(F)cc1-2` ?
**A:** > 100 µM
